# assay.text: Fluorescence lifetimes in solvents, two-photon excitation with TCSPC
# Assay type: physicochemical
# condition: MeCN, 20° C., two-photon excitation 620-630 nm; ne = non-exponential
endpoint: Fluorescence lifetime τ (ns)
Report only the number, with the unit ns understood.

COc1ccc(/C=C/c2cc(OC)c(OC)c(OC)c2)cc1F 0.59
COc1ccc(/C=C/c2cc(OC)c(OC)c(OC)c2)cc1N 3.6

Please examine the following record next.
Task item: Provide measured Fluorescence lifetime τ value, entry: "COc1ccc(/C=C/c2cc(OC)c(OC)c(OC)c2)cc1O"
Reply: 0.29

----------
Reported Fluorescence quantum yield φ by item:
# assay.text: Fluorescence quantum yields in solvents, UV one-photon excitation
# Format: physicochemical
# condition: DCM, 20° C., 290-300 nm excitation
Answer with a number only.

A selection of reference data follows.
COc1ccc(/C=C/c2cc(OC)c(OC)c(OC)c2)cc1O 0.19
COc1ccc(/C=C/c2cc(OC)c(OC)c(OC)c2)cc1N 0.43
COc1ccc(/C=C/c2cc(OC)c(OC)c(OC)c2)cc1F 0.23

Task item: State, in one line, measured Fluorescence quantum yield φ of "COc1cc(/C=C/c2ccc(N(C)C)cc2)cc(OC)c1OC"
Reply: 0.11
